- Test system: Plasmodium falciparum
- procedure summary: GSK_TCMDC: Inhibition of Plasmodium falciparum Dd2 in whole red blood cells, using parasite LDH activity as an index of growth. Test compounds present at 2uM
- Assay type: functional
value kind: Inhibition (%)

{"compound structure string": "Cc1ccc(-c2nc3cc(C(=O)NC4CCN(Cc5ccccc5)CC4)ccc3[nH]2)cc1", "endpoint result": 53}
{"compound structure string": "CN1C(C)(C)CC(NC(=O)c2ccc(-c3nc4cc(Cl)ccc4[nH]3)cc2)CC1(C)C", "endpoint result": 36}
{"compound structure string": "O=C(O)C(F)(F)F.O=C(O)Cc1ccc(-c2c[nH]c3ncc(-c4cccc5ncccc45)cc23)cc1", "endpoint result": 0}
